- assay info: P. aeruginosa biofilm formation inhibitors, primary screen, PAO1 strain, BacTiter-Glo luminescence, LB-PBS (AID 1144)
- test conditions: 12 h, higher = more signal
outcome measure: z-score

{"columns": ["compound", "quantitative readout"],
 "data": [
  ["[N-]=[N+]=NCc1ccccc1[C@H]1OC(c2ccc(OCCCO)cc2)=N[C@@]1(Cc1ccccc1)C(=O)NCc1ccccc1", -0.862],
  ["COCCn1c(C(=O)N2CCCC2)cc2c1C[C@H]1CN(C(=O)c3ccccc3)[C@@](Cc3ccc(F)cc3)(C(=O)OC)[C@@H]21", -0.727],
  ["CN1C(=O)C2C=CC(C(O)c3ccccc3)N(Nc3ccccc3)C2C1=O (configuration not stated)", -0.231],
  ["C=CCOC(=O)[C@H]1[C@@H]2C(=O)O[C@@H](c3ccccc3)[C@@H](c3ccccc3)N2[C@@H](c2ccc(OCCOC(=O)[C@H]3C[C@H]4C(=O)N[C@@H](CC(C)C)C(=O)N4[C@H]3c3ccc(O)cc3)cc2)[C@]12C(=O)Nc1ccc(I)cc12", -0.829],
  ["O=C1NCC(=O)N2[C@@H]1C[C@@H](C(=O)O)[C@H]2c1cccc(OCCO)c1", 4.41],
  ["COc1ccc(CCNC(=O)[C@@H]2c3ccccc3C(=O)N(C3Cc4ccccc4C3)[C@H]2c2ccc(CO)cc2)cc1", -0.17],
  ["CN1C(=O)C2C=CC(C(O)c3ccc(I)cc3)N(N3CCCCC3)C2C1=O (configuration not stated)", 0.175]
]}

* * *

- assay info: HepG2 cell viability effects, profiling panel, calcein-AM fluorescence, 48 h, basal (AID 1164); further: test concentration not given here
- test conditions: higher = more signal
Listing of entries alongside the reported z-score.
outcome measure: z-score

{"columns": ["molecule", "outcome measure", "quantitative readout"],
 "data": [
  ["COCCCNC(=O)C1N=C(c2ccc(OCCCO)cc2)N(c2ccccc2)O1 (centres undefined)", "z-score", -0.393],
  ["COC(=O)[C@@]1(Cc2ccc(OC)cc2)[C@H]2c3cc(C(=O)N4CCCC4)n(Cc4ccc(OC)c(OC)c4)c3C[C@H]2CN1C(=O)c1ccccc1", "z-score", -1.05],
  ["CCOC(=O)[C@H]1C/C=C/C[C@H](C(=O)OCC)C(=O)O[C@H]2[C@@H](OC)O[C@H](CO)[C@@H](OC(=O)Nc3ccc(C#N)cc3)[C@@H]2OC1=O", "z-score", -4.91],
  ["O=C1OCCC/C=C\\[C@H]2OC34C=CCN(c5ccc6ccccc6c5)C(=O)[C@H]3N(CCCCCCO)C(=O)[C@@H]4C12 (some centres undefined)", "z-score", 2],
  ["COc1ccc(C#Cc2ccc3c(c2)[C@]2(C(=O)N3)[C@H](c3ccccc3OCCO)N3[C@H](c4ccccc4)[C@H](c4ccccc4)OC(=O)[C@H]3[C@@H]2C(=O)O)cc1", "z-score", -2.53],
  ["COCCOC(=O)N1C(=O)[C@@]2(c3cc(C#CC4=CCCCC4)ccc31)[C@H](C(=O)Nc1nc3ccccc3s1)[C@H]1C(=O)O[C@H](c3ccccc3)[C@H](c3ccccc3)N1[C@@H]2c1ccccc1OCCO", "z-score", -0.789],
  ["C=C(CCCC)C(=O)CC[C@@H](OC(=O)c1cccnc1)c1ccc(CO)o1", "z-score", 0.909],
  ["COCCOC(=O)N1C(=O)[C@@]2(c3cc(C#CC4=CCCCC4)ccc31)[C@H](c1ccc(O)cc1)N1[C@H](c3ccccc3)[C@H](c3ccccc3)OC(=O)[C@H]1[C@@H]2C(N)=O", "z-score", -0.364],
  ["[N-]=[N+]=NCc1ccccc1[C@@H]1OC(c2ccc(OCCCO)cc2)=N[C@]1(CCS(=O)(=O)c1ccccc1)C(=O)NCCN1CCOCC1", "z-score", 1.61],
  ["CC1(C)[C@@H]2CC(C(O)C3C=CC4C(=O)N(c5ccccc5)C(=O)C4N3Nc3ccccc3)=C[C@H]1C2 (some centres undefined)", "z-score", -1.16],
  ["C=C/C=C/[C@H]1C(=C)CN([C@@H](Cc2ccccc2)C(=O)OC)[C@@H]1[C@H](O)Cc1ccccc1", "z-score", -0.0232],
  ["CN1C(=O)C2C=CC(C(O)c3ccc(-c4ccccc4)s3)N(N(c3ccccc3)c3ccccc3)C2C1=O (centres undefined)", "z-score", 0.391],
  ["CCOC1=C2C(CN(S(=O)(=O)c3ccc(C)cc3)C2c2ccc(C)cc2)C2C(=O)N(c3ccccc3)C(=O)C2C1 (centres undefined)", "z-score", 0.58],
  ["C=CC[C@]1(C(=O)NCCCOC)N=C(c2ccc(OCCCO)cc2)O[C@H]1c1ccccc1N=[N+]=[N-]", "z-score", 0.0592]
]}

* * *

- assay info: binders from COS7 lysate, DM2A8 probe, primary screen, torsin A project, cell lysate, small-molecule microarray, fluorescence 635/667 (AID 1065)
- test conditions: higher = more signal, COS7 lysate expressing mutant human TOR1A
outcome measure: composite z-score

{"columns": ["mol", "outcome measure", "quantitative readout"],
 "data": [
  ["CCOC(=O)[C@H]1C/C=C/C[C@H](C(=O)OCC)C(=O)O[C@H]2[C@@H](OC)O[C@H](CO)[C@@H](OC(=O)Nc3ccc(C#N)cc3)[C@@H]2OC1=O", "composite z-score", -0.317],
  ["O=C1c2ccccc2[C@@]2(Cc3ccccc3N(CCN3CCOCC3)C2=O)[C@H](c2ccc(CO)cc2)N1Cc1ccccc1", "composite z-score", -0.374],
  ["COCCOC(=O)N1C(=O)[C@@]2(c3cc(C#CC4=CCCCC4)ccc31)[C@H](C(=O)Nc1nc3ccccc3s1)[C@H]1C(=O)O[C@H](c3ccccc3)[C@H](c3ccccc3)N1[C@@H]2c1ccc(OCCO)cc1", "composite z-score", 0.471],
  ["CN(C)CCCNC(=O)[C@@]1(c2ccc([N+](=O)[O-])cc2)CC(=O)N(C2CCCCC2)[C@@H]1c1ccc(CO)cc1", "composite z-score", 0.595],
  ["C=CCN1C(=O)[C@@]2(O[C@@H](CCO)[C@H]([Si](C)(C)c3ccc(OC)cc3)[C@H]2C)c2cc(NC(=O)c3ccc(OC)cc3)ccc21", "composite z-score", 0.612],
  ["NCCCCCNC(=O)[C@@H]1C[C@@H]2C(=O)NCC(=O)N2[C@@H]1c1ccc(O)cc1", "composite z-score", 0.304]
]}

* * *

- Tested on: Inhibin beta A chain (activin A)
- assay info: INHBA (activin A) binders on microarrays, primary screen, biochemical, small-molecule microarray, 635 nm fluorescence scan (AID 1107);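 further: mouse activin A protein probed at 4.33 µg/mL on printed slides; score merges bound-protein fluorescence near 667 nm with spot signal-to-noise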
- test conditions: small-molecule microarray binding, higher = more signal
outcome measure: composite z-score

{"columns": ["compound", "result"],
 "data": [
  ["CN(C)C(=O)[C@@]1(Cc2ccccc2CN=[N+]=[N-])N=C(c2ccc(OCCCO)cc2)O[C@H]1c1ccccc1", 0.823],
  ["C=CCC(OC(C)=O)[C@@H]1[C@@H](N(Cc2cccc3ccccc23)C(=O)c2ccc(-c3ccccc3)cc2)c2cc(OCCCO)ccc2N1C(=O)Cc1ccc(OC)cc1 (stereo partly drawn)", 0.884],
  ["C=CCOC(=O)[C@@H]1[C@H]2C(=O)O[C@H](c3ccccc3)[C@H](c3ccccc3)N2[C@H](c2ccc(OCCOC(=O)[C@@H]3C[C@@H]4C(=O)N[C@@H](Cc5ccccc5)C(=O)N4[C@@H]3c3ccc(O)cc3)cc2)[C@@]12C(=O)Nc1ccc(I)cc12", 0.518]
]}

* * *

- assay info: small-molecule binders of probe aNOTCH2, primary screen, biochemical, small-molecule microarray, 635/667 nm fluorescence (AID 1121);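 further: score merges feature fluorescence read at 667 nm with its signal to noise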
- test conditions: higher = more signal
Categorize each record by its composite z-score using lower range (below -0.1), middle range (-0.1 to below 0.05), upper range (0.05 or more)

{"columns": ["compound", "class assignment"],
 "data": [
  ["CN(C)C(=O)[C@@]1(Cc2ccccc2CN=[N+]=[N-])N=C(c2ccc(OCCCO)cc2)O[C@H]1c1ccccc1", "upper range"],
  ["COC(=O)[C@@]1(Cc2ccc(OC)cc2)[C@H]2c3cc(C(=O)N(C)C)n(CCN4CNCC4=O)c3C[C@H]2CN1C(=O)c1ccccc1", "middle range"],
  ["COC(=O)[C@@]1(Cc2ccccc2)[C@H]2c3cc(C(=O)N4CCCC4)n(CC4CC4)c3C[C@H]2CN1C(=O)c1ccccc1", "upper range"],
  ["C=CCOC(=O)[C@H]1[C@@H]2C(=O)O[C@@H](c3ccccc3)[C@@H](c3ccccc3)N2[C@@H](c2ccc(OCCOC(=O)[C@H]3C[C@H]4C(=O)N[C@@H](CC(C)C)C(=O)N4[C@H]3c3ccc(O)cc3)cc2)[C@]12C(=O)Nc1ccc(I)cc12", "lower range"],
  ["O=C(NCc1ccccc1)[C@@H]1c2ccccc2C(=O)N(CC23CC4CC(CC(C4)C2)C3)[C@H]1c1ccc(CO)cc1", "lower range"],
  ["COC(=O)[C@@]1(Cc2ccc(F)cc2)[C@H]2c3cc(C(=O)N(C)C)n(Cc4ccc(S(C)(=O)=O)cc4)c3C[C@H]2CN1C(=O)c1ccccc1", "upper range"],
  ["COCCOC(=O)N1C(=O)[C@@]2(c3cc(C#Cc4ccc(OC)cc4)ccc31)[C@H](C(N)=O)[C@H]1C(=O)O[C@H](c3ccccc3)[C@H](c3ccccc3)N1[C@@H]2c1ccccc1OCCO", "upper range"],
  ["CN1C(=O)C2C=CC(C(O)c3cc(C(F)(F)F)cc(C(F)(F)F)c3)N(N3CCCCC3)C2C1=O (configuration not stated)", "middle range"],
  ["C=CCOC(=O)[C@H]1[C@@H]2C(=O)O[C@@H](c3ccccc3)[C@@H](c3ccccc3)N2[C@@H](c2ccc(OCCOC(=O)[C@H]3C[C@H]4C(=O)N5CCC[C@H]5C(=O)N4[C@H]3c3ccc(O)cc3)cc2)[C@]12C(=O)Nc1ccc(I)cc12", "upper range"],
  ["COCCCNC(=O)C1N=C(c2ccc(OCCCO)cc2)N(c2ccccc2)O1 (configuration not stated)", "lower range"],
  ["[N-]=[N+]=NCc1ccccc1[C@@H]1OC(c2ccc(OCCCO)cc2)=N[C@]1(CCS(=O)(=O)c1ccccc1)C(=O)NCc1ccccc1", "upper range"],
  ["COc1cc2c(cc1O)C(C1CC1)N(Cc1cc3c(cc1Br)OCO3)CC2 (configuration not stated)", "middle range"],
  ["CCOc1cc(C(O)C2C=CC3C(=O)N(c4ccccc4)C(=O)C3N2Nc2ccccc2)ccc1O (configuration not stated)", "lower range"],
  ["C=CC[C@@]1(C(=O)N(C)C)N=C(c2ccc(OCCCO)cc2)O[C@@H]1c1ccccc1N=[N+]=[N-]", "upper range"],
  ["COCCOC(=O)N1C(=O)[C@@]2(c3cc(C#CC4=CCCCC4)ccc31)[C@H](C(=O)Nc1nc3ccccc3s1)[C@H]1C(=O)O[C@H](c3ccccc3)[C@H](c3ccccc3)N1[C@@H]2c1ccc(OCCO)cc1", "lower range"],
  ["COc1cc2c(cc1O)C=[N+](Cc1cccc(OC(F)(F)F)c1)CC2", "lower range"],
  ["COC(=O)[C@@]1(Cc2ccc(F)cc2)[C@H]2c3cc(C(=O)N(C)C)n(Cc4nc5ccccc5[nH]4)c3C[C@H]2CN1C(=O)c1ccccc1", "middle range"],
  ["COCCOC(=O)N1C(=O)[C@@]2(c3cc(C#CCCO)ccc31)[C@H](c1ccc(OCCO)cc1)N1[C@H](c3ccccc3)[C@H](c3ccccc3)OC(=O)[C@H]1[C@@H]2C(=O)N1CCN(c2ncccn2)CC1", "lower range"],
  ["COc1ccc([Si](C)(C)[C@H]2[C@H](CCO)O[C@@]3(C(=O)N(C)c4c(Br)cc(C)cc43)[C@@H]2C)cc1", "middle range"],
  ["C[N+](C)(C)CCCC[C@@H]1NC(=O)[C@@H]2C[C@H](C(=O)NCCCCCN)[C@H](c3cccc(OCCO)c3)N2C1=O", "middle range"],
  ["CC(C)C(=C=CC[C@@H](O)c1ccccc1OCCO)CCO", "lower range"],
  ["O=C1C2C=CC(C(O)C3CCCCC3)N(Nc3ccc([N+](=O)[O-])cc3)C2C(=O)N1c1ccccc1 (configuration not stated)", "lower range"],
  ["Cc1ccc(S[C@]2(C(=O)NCCN3CCOCC3)CC(=O)N(Cc3ccccc3Cl)[C@@H]2c2ccc(CO)cc2)cc1", "lower range"],
  ["NCCCCCNC(=O)[C@@H]1C[C@@H]2C(=O)N[C@@H](Cc3ccccc3)C(=O)N2[C@@H]1c1cccc(OCCO)c1", "lower range"],
  ["C=CCOC(=O)[C@H]1[C@@H]2C(=O)O[C@@H](c3ccccc3)[C@@H](c3ccccc3)N2[C@@H](c2ccc(OCCOC(=O)[C@@H]3C[C@@H]4C(=O)N[C@@H](CCCC[N+](C)(C)C)C(=O)N4[C@@H]3c3ccc(O)cc3)cc2)[C@]12C(=O)Nc1ccccc12", "lower range"],
  ["[N-]=[N+]=Nc1ccccc1C[C@]1(C(=O)NCC(O)CO)N=C(c2ccc(OCCCO)cc2)O[C@H]1c1ccccc1N=[N+]=[N-] (some centres not stated)", "upper range"]
]}
